The reported measurements were obtained from PubChem BioAssay AID1963960.

Parameter: pIC50. Scope: all listed entries.
Tested on: MDA-MB-468 spheroids with HUVEC/MSC, viability
Test: Anticancer human tumor MDA-MB-468 cell line growth inhibition [PI3K];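 also: spheroids exposed to agents for seven days before readout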
Settings: curve of first compound; second compound 0.0316 µM
pIC50: −log10 of the molar value.

Below, 4 molecules whose answers are already recorded.
The reported value for C=CC(=O)N1CCN(c2nc(=O)n(-c3c(C)ccnc3C(C)C)c3nc(-c4c(O)cccc4F)c(F)cc23)C(C)C1 (stereo not given) + CC(Nc1ncnc2nc[nH]c12)c1cc2cccc(Cl)c2c(=O)n1-c1ccccc1 in terms of pIC50 is < 5.00

The reported value for CNC(=O)c1ccc(N2C(=S)N(c3ccc(C#N)c(C(F)(F)F)c3)C(=O)C2(C)C)cc1F + CC(Nc1ncnc2nc[nH]c12)c1cc2cccc(Cl)c2c(=O)n1-c1ccccc1 in terms of pIC50 is < 5.00

The reported value for Cn1cnc2c(F)c(Nc3ccc(Br)cc3Cl)c(C(=O)NOCCO)cc21 + CC(Nc1ncnc2nc[nH]c12)c1cc2cccc(Cl)c2c(=O)n1-c1ccccc1 in terms of pIC50 is < 5.52

The reported value for CC(C)NCC(C(=O)N1CCN(c2ncnc3c2C(C)CC3O)CC1)c1ccc(Cl)cc1 (stereo not given) + CC(Nc1ccc2c(c1)OCCn1cc(N3C(=O)OCC3C(F)F)nc1-2)C(N)=O in terms of pIC50 is 6.13

Now look at this entry.
The reported value for C=CC(=O)N1CCN(c2nc(=O)n(-c3c(C)ccnc3C(C)C)c3nc(-c4c(O)cccc4F)c(F)cc23)C(C)C1 (stereo not given) + Cc1nc(NC(=O)N2CCCC2C(N)=O)sc1-c1ccnc(C(C)(C)C(F)(F)F)c1 in terms of pIC50 is < 5.00

---

Parameter: viability, T/C. Scope: all listed entries.
System: MDA-MB-468 spheroids with HUVEC/MSC, viability
Assay: Anticancer human tumor MDA-MB-468 cell line growth inhibition [PI3K];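 also: spheroids exposed to agents for seven days before readout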;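 as to viability, T/C: 100% = DMSO vehicle control viability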
Conditions: second compound 0.0316 µM; first compound 0.01 µM; stronger effect = lower value
The answer is to be given in %; state only the numeric part.

The reported value for CCN1CCN(Cc2ccc(Nc3ncc(F)c(-c4cc(F)c5nc(C)n(C(C)C)c5c4)n3)nc2)CC1 + CC(Nc1ccc2c(c1)OCCn1cc(N3C(=O)OCC3C(F)F)nc1-2)C(N)=O in terms of viability, T/C is 108

More entries:
The reported value for CC(=O)c1c(C)c2cnc(Nc3ccc(N4CCNCC4)cn3)nc2n(C2CCCC2)c1=O + Cc1nc(NC(=O)N2CCCC2C(N)=O)sc1-c1ccnc(C(C)(C)C(F)(F)F)c1 in terms of viability, T/C is 93.4

The reported value for CCN1CCN(Cc2ccc(Nc3ncc(F)c(-c4cc(F)c5nc(C)n(C(C)C)c5c4)n3)nc2)CC1 + COc1c(OCCCN2CCOCC2)ccc2c3n(c(=NC(=O)c4cnc(N)nc4)nc12)CCN3 in terms of viability, T/C is 72.2

---

Test system: MDA-MB-468 spheroids with HUVEC/MSC, viability
Test: Anticancer human tumor MDA-MB-468 cell line growth inhibition [PI3K];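 also: spheroids exposed to agents for seven days before readout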;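 as to viability, T/C: 100% = DMSO vehicle control viability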
Details: second compound 1 µM; first compound 0.0316 µM; stronger effect = lower value
Parameter: viability, T/C. Scope: all listed entries.
The answer is to be given in %; state only the numeric part.

Below, 5 compounds whose answers are already recorded.
The observed viability, T/C for CC1(C)CCC(CN2CCN(c3ccc(C(=O)NS(=O)(=O)c4ccc(NCC5CCOCC5)c([N+](=O)[O-])c4)c(Oc4cnc5[nH]ccc5c4)c3)CC2)=C(c2ccc(Cl)cc2)C1 + CC(Nc1ccc2c(c1)OCCn1cc(N3C(=O)OCC3C(F)F)nc1-2)C(N)=O when tested with MDA-MB-468 spheroids with HUVEC/MSC, viability stands at 80.6

The observed viability, T/C for C#Cc1c(F)ccc2cc(O)cc(-c3ncc4c(N5CC6CCC(C5)N6)nc(OCC56CCCN5CC(F)C6)nc4c3F)c12 (stereo unspecified) + CC(Nc1ccc2c(c1)OCCn1cc(N3C(=O)OCC3C(F)F)nc1-2)C(N)=O when tested with MDA-MB-468 spheroids with HUVEC/MSC, viability stands at 89.1

The observed viability, T/C for CC1(C)CCC(Nc2ncc(C(F)(F)F)c(-c3c[nH]c4c(P(C)(C)=O)c(C#N)ccc34)n2)CN1 (stereo unspecified) + CC(Nc1ccc2c(c1)OCCn1cc(N3C(=O)OCC3C(F)F)nc1-2)C(N)=O when tested with MDA-MB-468 spheroids with HUVEC/MSC, viability stands at 11.7

The observed viability, T/C for CC(C)n1nc(-c2ccc3oc(N)nc3c2)c2c(N)ncnc21 + CC(Nc1ccc2c(c1)OCCn1cc(N3C(=O)OCC3C(F)F)nc1-2)C(N)=O when tested with MDA-MB-468 spheroids with HUVEC/MSC, viability stands at 46.6

The observed viability, T/C for C[C@@H](NC(=O)c1ncnc(N)c1Cl)c1ncc(C(=O)Nc2cc(C(F)(F)F)c(Cl)cn2)s1 + CC(Nc1ccc2c(c1)OCCn1cc(N3C(=O)OCC3C(F)F)nc1-2)C(N)=O when tested with MDA-MB-468 spheroids with HUVEC/MSC, viability stands at 97.3

More entries:
The observed viability, T/C for CC(=O)c1c(C)c2cnc(Nc3ccc(N4CCNCC4)cn3)nc2n(C2CCCC2)c1=O + COc1c(OCCCN2CCOCC2)ccc2c3n(c(=NC(=O)c4cnc(N)nc4)nc12)CCN3 when tested with MDA-MB-468 spheroids with HUVEC/MSC, viability stands at 2.94

The observed viability, T/C for CCCS(=O)(=O)Nc1ccc(F)c(C(=O)c2c[nH]c3ncc(-c4ccc(Cl)cc4)cc23)c1F + CC(Nc1ncnc2nc[nH]c12)c1cc2cccc(Cl)c2c(=O)n1-c1ccccc1 when tested with MDA-MB-468 spheroids with HUVEC/MSC, viability stands at 61.7

The observed viability, T/C for CC(C)n1nc(-c2ccc3oc(N)nc3c2)c2c(N)ncnc21 + Cc1nc(NC(=O)N2CCCC2C(N)=O)sc1-c1ccnc(C(C)(C)C(F)(F)F)c1 when tested with MDA-MB-468 spheroids with HUVEC/MSC, viability stands at 42.2

---

System: MDA-MB-468 spheroids with HUVEC/MSC, viability
Assay: Anticancer human tumor MDA-MB-468 cell line growth inhibition [PI3K];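 also: spheroids exposed to agents for seven days before readout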;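 as to viability, T/C: 100% = DMSO vehicle control viability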
Settings: second compound 1 µM; first compound 0.000316 µM; stronger effect = lower value
Category | rule: reported viability, T/C within range, see low = under 60%, moderate = from 60% up to 90%, high = 90% and over

Examples with answers:
Band of CC(=O)c1c(C)c2cnc(Nc3ccc(N4CCNCC4)cn3)nc2n(C2CCCC2)c1=O + CC(Nc1ncnc2nc[nH]c12)c1cc2cccc(Cl)c2c(=O)n1-c1ccccc1 ? moderate

Band of Cn1ncnc1[C@H]1c2n[nH]c(=O)c3cc(F)cc(c23)N[C@@H]1c1ccc(F)cc1 + Cc1nc(NC(=O)N2CCCC2C(N)=O)sc1-c1ccnc(C(C)(C)C(F)(F)F)c1 ? high

Band of CC(C)n1nc(-c2ccc3oc(N)nc3c2)c2c(N)ncnc21 + Cc1nc(NC(=O)N2CCCC2C(N)=O)sc1-c1ccnc(C(C)(C)C(F)(F)F)c1 ? moderate

Band of Cn1ncnc1[C@H]1c2n[nH]c(=O)c3cc(F)cc(c23)N[C@@H]1c1ccc(F)cc1 + CC(Nc1ccc2c(c1)OCCn1cc(N3C(=O)OCC3C(F)F)nc1-2)C(N)=O ? moderate

More entries:
Band of CC(=O)c1c(C)c2cnc(Nc3ccc(N4CCNCC4)cn3)nc2n(C2CCCC2)c1=O + CC(Nc1ccc2c(c1)OCCn1cc(N3C(=O)OCC3C(F)F)nc1-2)C(N)=O ? moderate

Band of Cn1ncnc1[C@H]1c2n[nH]c(=O)c3cc(F)cc(c23)N[C@@H]1c1ccc(F)cc1 + COc1c(OCCCN2CCOCC2)ccc2c3n(c(=NC(=O)c4cnc(N)nc4)nc12)CCN3 ? low

Band of CC(C)n1nc(-c2ccc3oc(N)nc3c2)c2c(N)ncnc21 + COc1c(OCCCN2CCOCC2)ccc2c3n(c(=NC(=O)c4cnc(N)nc4)nc12)CCN3 ? low

---

Test system: MDA-MB-468 spheroids with HUVEC/MSC, viability
Experiment: Anticancer human tumor MDA-MB-468 cell line growth inhibition [PI3K]; active means viability on the fitted dose curve at most 10% of control; inactive means the rest;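 also: spheroids exposed to agents for seven days before readout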
Settings: second compound 1 µM; first compound 0.00949 µM
Choose one outcome from this list and give only that: 1.0 = active, 0.0 = inactive

Examples with answers:
How was Cn1cnc2c(F)c(Nc3ccc(Br)cc3Cl)c(C(=O)NOCCO)cc21 + CC(Nc1ncnc2nc[nH]c12)c1cc2cccc(Cl)c2c(=O)n1-c1ccccc1 classified in this test? 0.0

How was Cn1cnc2c(F)c(Nc3ccc(Br)cc3Cl)c(C(=O)NOCCO)cc21 + COc1c(OCCCN2CCOCC2)ccc2c3n(c(=NC(=O)c4cnc(N)nc4)nc12)CCN3 classified in this test? 1.0

More entries:
How was Cn1cnc2c(F)c(Nc3ccc(Br)cc3Cl)c(C(=O)NOCCO)cc21 + Cc1nc(NC(=O)N2CCCC2C(N)=O)sc1-c1ccnc(C(C)(C)C(F)(F)F)c1 classified in this test? 0.0

How was Cn1cnc2c(F)c(Nc3ccc(Br)cc3Cl)c(C(=O)NOCCO)cc21 + CC(Nc1ccc2c(c1)OCCn1cc(N3C(=O)OCC3C(F)F)nc1-2)C(N)=O classified in this test? 0.0
